Recorded values, source patent US20220025021A1.

Biological target: HIV-1 Env of pseudovirus RHPA4259.7 (HIV-1)
Assay: cell-based or functional assay
Measurement Kind: neutralization IC50 (µg/mL)
Use µg/mL as the unit, but write only the number.

[
  {
    "Binder": "MS-82 (antibody, V domains shown) VH: QVQLVQSGPEVRKPGTSVKVSCKAPGNTLKTYDLHWVRSVPGQGLQWMGWISHEGDKKVIVERFKAKVTIDWDRSTNTAYLQLSGLRSGDTAVYYCAKGSKHRLRDYALYDDDGALNWAVDVDYLSNLEFWGQGTAVTVSS VL: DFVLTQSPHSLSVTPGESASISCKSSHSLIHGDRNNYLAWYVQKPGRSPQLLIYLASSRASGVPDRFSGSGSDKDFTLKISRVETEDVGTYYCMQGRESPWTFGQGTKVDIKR",
    "neutralization IC50 (µg/mL)": 0.192
  },
  {
    "Binder": "MS-72 (antibody, V domains shown) VH: QVQLVQSGPEVRKPGTSVKVSCKAPGNTLKTYDLHWVRSVPGQGLQWMGWISHEGDKKVIVERFKAKVTIDWDRSTNTAYLQLSGLTSGDTAVYYCAKGSKHRLRDYALYDDDGALNWAVDVDYLSNLEFWGQGTAVTVSS VL: DFVLTQSPHSLSVTPGESASISCKSSHSLIHGDRNNYLAWYVQKPGRSPQLLIYLASSRASGVPDRFSGSGSDTDFTLKISRVETEDVGTYYCMQGRESPWTFGQGTKVDIKR",
    "neutralization IC50 (µg/mL)": 0.247
  },
  {
    "Binder": "MS-70 (antibody, V domains shown) VH: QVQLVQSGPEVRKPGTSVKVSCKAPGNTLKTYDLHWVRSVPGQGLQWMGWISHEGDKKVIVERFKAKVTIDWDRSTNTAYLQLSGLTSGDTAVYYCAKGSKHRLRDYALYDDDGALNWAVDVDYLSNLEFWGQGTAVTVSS VL: DFVLTQSPHSLSVTPGESASISCKSSHSLIHGDRNNYLAWYVQKPGQSPQLLIYLASSRASGVPDRFSGSGSDKDFTLKISRVETEDVGTYYCMQGRESPWTFGQGTKVDIKR",
    "neutralization IC50 (µg/mL)": 0.182
  }
]

Field neutralization IC50 (entry MS-77 (antibody, V domains shown) VH: QVQLVQSGPEVRKPGTSVKVSCKAPGNTFKTYDLHWVRSVPGQGLQWMGWISHEGDKKVIVERFKAKVTIDWDRSTNTAYLQLSGLTSGDTAVYYCAKGSKHRLRDYALYDDDGALNWAVDVDYLSNLEFWGQGTAVTVSS VL: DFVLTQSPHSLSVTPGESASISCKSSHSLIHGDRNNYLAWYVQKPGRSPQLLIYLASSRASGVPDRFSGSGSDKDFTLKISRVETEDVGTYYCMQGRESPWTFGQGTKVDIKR ) reads 0.209

neutralization IC50 measured on MS-81 (antibody, V domains shown) VH: QVQLVQSGPEVRKPGTSVKVSCKAPGNTLKTYDLHWVRSVPGQGLQWMGWISHEGDKKVIVERFKAKVTIDWDRSTNTAYLELSGLTSGDTAVYYCAKGSKHRLRDYALYDDDGALNWAVDVDYLSNLEFWGQGTAVTVSS VL: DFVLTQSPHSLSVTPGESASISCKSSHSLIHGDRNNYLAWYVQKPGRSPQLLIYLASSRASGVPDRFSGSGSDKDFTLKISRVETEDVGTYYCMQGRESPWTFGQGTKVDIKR = 0.202

Lab note: measured neutralization IC50 of MS-78 (antibody, V domains shown) VH: QVQLVQSGPEVRKPGTSVKVSCKAPGNTLKTYDLHWVRSVPGQGLEWMGWISHEGDKKVIVERFKAKVTIDWDRSTNTAYLQLSGLTSGDTAVYYCAKGSKHRLRDYALYDDDGALNWAVDVDYLSNLEFWGQGTAVTVSS VL: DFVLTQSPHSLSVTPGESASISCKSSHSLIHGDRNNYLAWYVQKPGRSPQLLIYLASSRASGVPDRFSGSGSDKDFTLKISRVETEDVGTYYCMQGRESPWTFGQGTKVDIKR was 0.241

Measured neutralization IC50 of MS-87 (antibody, V domains shown) VH: QVQLVQSGPEVRKPGTSVKVSCKAPGNTLKTYDLHWVRSVPGQGLQWMGWISHEGDKKVIVERFKAKVTITRDRSTNTAYLQLSGLTSGDTAVYYCAKGSKHRLRDYALYDDDGALNWAVDVDYLSNLEFWGQGTAVTVSS VL: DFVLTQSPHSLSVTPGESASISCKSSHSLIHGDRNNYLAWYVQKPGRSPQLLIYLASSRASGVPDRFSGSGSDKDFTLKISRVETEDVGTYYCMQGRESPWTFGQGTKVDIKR : 0.294

GET /value?item= MS-89 (antibody, V domains shown) VH: QVQLVQSGPEVRKPGTSVKVSCKAPGYTLKTYDLHWVRSVPGQGLQWMGWISHEGDKKVIVERFKAKVTITWDRSTNTAYLQLSGLTSGDTAVYYCAKGSKHRLRDYALYDDDGALNWAVDVDYLSNLEFWGQGTAVTVSS VL: DFVLTQSPLSLSVTPGESASISCKSSHSLIHGDRNNYLAWYVQKPGRSPQLLIYLASSRASGVPDRFSGSGSDKDFTLKISRVETEDVGTYYCMQGRESPWTFGQGTKVDIKR &field=neutralization IC50 returns 0.29

Reported neutralization IC50 of MS-85 (antibody, V domains shown) VH: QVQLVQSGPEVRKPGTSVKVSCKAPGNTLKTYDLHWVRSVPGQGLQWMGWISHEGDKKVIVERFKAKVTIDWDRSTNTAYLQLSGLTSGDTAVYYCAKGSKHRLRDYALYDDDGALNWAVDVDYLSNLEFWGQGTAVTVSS VL: DIVLTQSPHSLSVTPGESASISCKSSHSLIHGDRNNYLAWYVQKPGRSPQLLIYLASSRASGVPDRFSGSGSGTDFTLKISRVETEDVGTYYCMQGRESPWTFGQGTKVDIKR : 0.173
